Exercise: state measured IC50 for each of the molecules provided.
test: Inhibition of Mycobacterium tuberculosis AlaDH using L-alanine as substrate after 20 mins by spectrophotometry; conditions: read-out: IC50
Form entry: value (µM) — number only.

Requested field: IC50. Item: CC(C)(C)OC(=O)N1CCc2c(sc(NC(=O)c3ccc(Cl)cc3)c2C(N)=O)C1
0.58

Lookup CC(=O)N1CCc2c(sc(NC(=O)c3ccc(Oc4ccccc4)cc3)c2C(N)=O)C1
0.66

Request: N=C1S/C(=C\c2ccc(OCc3ccccc3)cc2)C(=O)N1c1ccc(F)cc1
8.55

Another molecule to look at: NC(=O)c1c(NC(=O)c2ccc(OCc3ccccc3)cc2)sc2c1CCN(C(=O)c1ccccc1)C2
0.8

Please give the result for CCc1nc(Nc2ccccc2)c2c3c(sc2n1)CCCC3 too.
15.1

Same for N=C1S/C(=C\c2ccc(OCc3ccccc3)cc2)C(=O)N1c1ccccc1[N+](=O)[O-]
15

Likewise for CC(C)(C)OC(=O)N1CCc2c(sc(NC(=O)c3ccc(Oc4ccccc4)cc3)c2C(N)=O)C1 ?
1.12

Now the same for N=C1S/C(=C\c2ccc(OCc3ccccc3)cc2)C(=O)N1c1ccc(Cl)cc1
7.01

Moving on to N#C/C(=C\c1cccs1)c1nc2cc([N+](=O)[O-])ccc2[nH]1
21.3

Could you do the same for Cc1c(Cl)cccc1N1C(=N)S/C(=C\c2ccc(OCc3ccccc3)cc2)C1=O , please?
13
